// provenance: ChEMBL document CHEMBL1201862

- Test system: HT-29
- test name: NCI tumour cell line growth inhibition, 48 h
Active and inactive are the calls of the source. Rule as the data show it: active = GI50 up to about 1.1 µM and inactive = higher.
readout kind: GI50

Answered examples (5):
{"compound": "O=C1CC(c2ccc(Cl)cc2)C2(C(=O)NC(=S)NC2=O)C(c2ccc(Cl)cc2)C1 (centres undefined)", "GI50": "16.9 µM (inactive)"}
{"compound": "C[C@]12c3c4cc(NC(=O)C(=O)NCc5ccc(-c6ccccn6)nc5)cc3Oc3cc(NC(=O)C(=O)NCc5ccc(-c6ccccn6)nc5)cc(c31)OC1C=C(NC(=O)C(=O)NCc3ccc(-c5ccccn5)nc3)C=C(O4)C12 (some centres undefined)", "GI50": "12.1 µM (inactive)"}
{"compound": "COc1ccc(C2=C(Cl)c3cc(OC)c(OC)cc3C2=O)cc1OC", "GI50": "5.38 µM (inactive)"}
{"compound": "N#C/C(=C\\c1ccc(Cl)cc1)c1nc(-c2cc3ccccc3oc2=O)cs1", "GI50": "> 100 µM (inactive)"}
{"compound": "Cc1ccc(S(=O)(=O)C(C#N)c2nc3ccccc3nc2-n2ccnc2)cc1 (centres undefined)", "GI50": "> 100 µM (inactive)"}

// query Provide value of GI50 for this record tested with HT-29: Oc1ccc(-c2nc(-c3cccnc3)c(-c3ccc(Cl)cc3)[nH]2)cc1O
// result 14.6 µM (inactive)

// query Provide value of GI50 for this record tested with HT-29: C[C@@H]1C(=O)C[C@H]2C(C)(C)CCC[C@]2(C)[C@@]1(O)CCc1ccoc1
// result > 100 µM (inactive)

// query Provide value of GI50 for this record tested with HT-29: CC(C)(C)OC(=O)NCCCCC1NC(=O)[C@@H]2Cc3c([nH]c4ccccc34)C(c3ccccc3)N2C1=O (some centres undefined)
// result 25.6 µM (inactive)

// query Provide value of GI50 for this record tested with HT-29: c1ccc(C2=NOC3COc4ccccc4OCC23)cc1 (centres undefined)
// result > 100 µM (inactive)
